From: patent US20250026765A1

molecular target: human ether-a-go-go related gene (hERG) channel (Homo sapiens (Human), UniProt Q12809); assay: hERG test (FluxOR II potassium channel assay, FLIPR); settings: CHO cells expressing hERG channel, thallium flux fluorescence, 10 minutes
Sequence (Q12809 whole entry): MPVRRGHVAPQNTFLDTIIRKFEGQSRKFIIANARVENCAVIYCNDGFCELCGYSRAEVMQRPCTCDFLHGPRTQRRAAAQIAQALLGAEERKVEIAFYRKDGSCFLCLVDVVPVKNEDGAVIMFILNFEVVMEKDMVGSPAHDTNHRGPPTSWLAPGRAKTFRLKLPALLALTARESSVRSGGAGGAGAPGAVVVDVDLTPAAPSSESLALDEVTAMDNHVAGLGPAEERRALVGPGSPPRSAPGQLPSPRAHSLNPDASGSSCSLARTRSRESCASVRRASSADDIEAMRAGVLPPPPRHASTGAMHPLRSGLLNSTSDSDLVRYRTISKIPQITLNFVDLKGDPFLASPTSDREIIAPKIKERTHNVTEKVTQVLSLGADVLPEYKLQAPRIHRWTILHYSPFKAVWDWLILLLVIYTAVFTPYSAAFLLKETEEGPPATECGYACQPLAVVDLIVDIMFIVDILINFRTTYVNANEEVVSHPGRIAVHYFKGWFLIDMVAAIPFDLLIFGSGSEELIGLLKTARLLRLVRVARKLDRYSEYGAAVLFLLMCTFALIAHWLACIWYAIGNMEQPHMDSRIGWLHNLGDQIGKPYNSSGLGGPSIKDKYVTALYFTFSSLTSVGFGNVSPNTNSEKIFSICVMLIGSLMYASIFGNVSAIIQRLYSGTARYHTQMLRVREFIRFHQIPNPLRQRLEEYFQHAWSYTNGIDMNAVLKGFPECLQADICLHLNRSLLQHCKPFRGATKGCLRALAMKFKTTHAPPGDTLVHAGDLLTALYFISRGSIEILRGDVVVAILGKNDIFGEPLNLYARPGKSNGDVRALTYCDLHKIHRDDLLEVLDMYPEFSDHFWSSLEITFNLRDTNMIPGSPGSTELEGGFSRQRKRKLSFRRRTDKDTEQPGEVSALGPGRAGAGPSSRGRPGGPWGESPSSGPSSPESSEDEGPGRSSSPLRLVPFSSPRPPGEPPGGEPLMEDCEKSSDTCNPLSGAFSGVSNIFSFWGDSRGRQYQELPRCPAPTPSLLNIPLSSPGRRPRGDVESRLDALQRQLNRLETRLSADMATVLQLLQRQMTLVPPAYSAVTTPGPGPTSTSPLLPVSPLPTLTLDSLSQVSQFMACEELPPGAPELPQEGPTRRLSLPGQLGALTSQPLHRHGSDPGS
The reader will find reported IC50 values listed item by item below.
Numbers only here, please. The scale is µM.

Smi | IC50 [µM]
CC(C)COc1ccc(CN(Cc2coc(CF)n2)C2=NOC3(CCN(C)CC3)N2)cc1 | 16.3

Would you kindly look at the next entry?
INPUT: What does the record list as IC50 for Cc1nc(CN(Cc2ccc(CCC(F)(F)F)cc2)C2=NOC3(CCN(C)CC3)N2)co1 ?
OUTPUT: 20
